B1: DNA-Binding protein, P69542 (parent)
chain: MIKVEIKPSQAQFTTRSGVSRQGKPYSLNEQLCYVDLGNEYPVLVKITLDEGQPAYAPGLYTVHLSSFKVGQFGSLMIDRLRLVPAK

Variants of: B1
Conditions: Enterobacteria phage fd; pH 7; 25 °C; GdnHCl; CD; MOPS 50 mM; NaCl 100 mM; reversible: yes; structure 1VQB; whole UniProt chain shown
# key: entry, value: unfolding free energy
measured-quantity: unfolding free energy (kJ/mol)

1) E30M : 2.51
2) K69M : 0.418
3) T48V : 0
4) L32W : 11.7
5) K24V : 3.35
6) T62V : 5.44
